Molecular target: PD-1-Fc (human) (UniProt Q15116)
Sequence (Q15116 25-167 limits assumed): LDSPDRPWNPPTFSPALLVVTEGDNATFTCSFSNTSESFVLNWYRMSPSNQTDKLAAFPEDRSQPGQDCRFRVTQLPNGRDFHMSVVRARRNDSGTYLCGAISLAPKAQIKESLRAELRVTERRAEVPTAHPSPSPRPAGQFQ
Experiment: ForteBio Octet, PD-1 on anti-human capture sensor, 100 nM
observable: Fortebio Response Units (Response Units)

(A) variant PD-L2 IgV I13V/E44D/Q82R/V89D Fc fusion (Fc fusion) LFTVTVPKELYIVEHGSNVTLECNFDTGSHVNLGAITASLQKVDNDTSPHRERATLLEEQLPLGKASFHIPQVQVRDEGQYRCIIIYGDAWDYKYLTLKVKA
(B) variant PD-L2 IgV H15Q/N24S/T47A/Q72H/R76G/V89D Fc fusion (Fc fusion) LFTVTVPKELYIIEQGSNVTLECSFDTGSHVNLGAITASLQKVENDASPHRERATLLEEQLPLGKASFHIPHVQVGDEGQYQCIIIYGDAWDYKYLTLKVKA
Name the one with the greater Fortebio Response Units (Response Units) value, either A or B as given. Pick one and reply with its label.
A
(A: 1.28, B: 0.4)
